Test system: Fibroblast
PROTOCOL_DESCRIPTION: Incucyte cell viability with human fibroblast; further: unitless GR value; below 1 slowed growth and below 0 cell loss
Type: toxicity, cell-based
ASSAY_SETUP: 6 h, 10 µM, compound concentration 10 uM, replicate number 1
// classify: if (Growth Rate < -0.5) YES else NO

{"columns": ["COMPOUND", "ASSIGNED_LABEL"],
 "data": [
  ["C=C(F)C(=O)N1CCN(c2nc(OC[C@@H]3CCCN3C)nc3c2CCN(c2cccc4cccc(Cl)c24)C3)C[C@@H]1CC#N", "NO"],
  ["N[C@@H]1CCCC[C@H]1Oc1ccc2ncc(-c3cc4ccccc4o3)n2n1", "NO"],
  ["CC(C)(C)c1ccc(-c2coc3ccc(-c4cn[nH]c4)nc23)cc1", "YES"],
  ["COc1ccccc1N1CCN(c2ncnc3c2cnn3-c2ccccc2)CC1", "NO"],
  ["CC1=NC(C=C2C(=O)Nc3ccc(F)cc32)=C(C)C1C(=O)NCC(O)CN1CCOCC1 (stereo not drawn)", "YES"],
  ["O=C1NCCSc2c1sc1ccc(O)cc21", "YES"],
  ["CN(C)C(=O)Cn1cc(-c2nc(C3(c4ccc(-c5cnc(N)nc5)cc4)CC3)no2)cn1", "NO"],
  ["CCN(C(=O)c1cc(F)ccc1Oc1cncnc1N1CC2(CCN(C[C@H]3CC[C@H](NS(=O)(=O)CC)CC3)CC2)C1)C(C)C", "NO"]
]}

====

Test system: Fibroblast
PROTOCOL_DESCRIPTION: Incucyte cell viability with human fibroblast; further: unitless GR value; below 1 slowed growth and below 0 cell loss
Format: toxicity, cell-based
ASSAY_SETUP: 12 h, 10 µM, compound concentration 10 uM, replicate number 2
// classify: if (Growth Rate < 0.5) True else False

{"columns": ["COMPOUND", "ASSAY_SYSTEM", "ASSIGNED_LABEL"],
 "data": [
  ["Nc1ncc2c(n1)-c1c([nH]c3ccc(C4=CCOCC4)cc13)CCC2", "Fibroblast", "False"],
  ["Cc1cc(O)c(-c2ccc([C@@H](C)CN(C)C)cc2)c2c1[nH]c(=O)c1sccc12", "Fibroblast", "True"],
  ["COCCNc1nc2ccc(C#CC3(O)CCCCC3)cc2n1-c1ccnc(N)n1", "Fibroblast", "True"],
  ["CCCS(=O)(=O)Nc1ccc(F)c(Nc2ncnc3cnc(-n4cnc(C)c4)nc23)c1F", "Fibroblast", "False"],
  ["Cc1csc(-c2nnc(Nc3ccc(Oc4ncccc4-c4ccnc(N)n4)cc3)c3ccccc23)c1 [AMG-900]", "Fibroblast", "False"],
  ["COCc1nc2cnc3cc(-c4c(C)noc4C)c(OC[C@H]4CCNC4)cc3c2n1[C@H](C)c1ccccc1 [GSK778]", "Fibroblast", "False"],
  ["CNc1nc(Nc2ccc(C(=O)N3CCOCC3)cc2OC)ncc1Cl", "Fibroblast", "False"],
  ["O=C1c2c(Br)c(Br)c(Br)c(Br)c2C(=O)N1c1ncc[nH]1", "Fibroblast", "True"],
  ["Cl.Cl.N#Cc1ccc(O[C@@H]2c3ccccc3C[C@H]2N2CCC[C@@H](N)C2)c(Cl)c1", "Fibroblast", "True"],
  ["CC(C)S(=O)(=O)c1ccccc1Nc1nc(N[C@@H]2CCCN(CCCCCCCNC(=O)COc3cccc4c3C(=O)N(C3CCC(=O)NC3=O)C4=O)C2)ncc1Cl (stereo partly specified)", "Fibroblast", "True"],
  ["CC1CNCCc2c1nc1ccnn1c2N1CC(C(=O)N2CCC(C)(C)C2)C1 (stereo unspecified)", "Fibroblast", "False"]
]}

meta.source: ChEMBL document CHEMBL5303304
